Assayed system: Aβ42 (Homo sapiens, UniProt P05067)
Sequence (P05067 672-713): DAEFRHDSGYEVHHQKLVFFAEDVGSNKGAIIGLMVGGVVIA
Assay remarks: Th-T (thioflavin-T) assay of Aβ42 aggregation
Type: biochemical
Protocol conditions: time-course reading M112; Supplementary Fig. 47 source data
Readout label: Th-T fluorescence, mean of three wells

- C=C1CC[C@H]2[C@]3(C)C[C@@H](C=C(C)C)O[C@H]3CC[C@]2(C)[C@@H]1Cc1c(OC)oc(CO)c(C)c1=O: 3.698
- C=C1CCC2C(C)(CC(=O)C=C(C)C)C(O)CCC2(C)C1Cc1c(OC)oc(CO)c(C)c1=O (stereo not shown): 3.604
- C=C1CCC2C(C)(CCC=C(C)C)C(O)CCC2(C)C1Cc1c(OC)oc(C)c(C)c1=O (stereo not shown) [Compound 15, viridoxin A hydrolysate]: 3.343

Now look at this entry.
Query C=C1CCC2C(C)(CCC=C(C)C)C(O)CCC2(C)C1Cc1c(O)c(C)c(C)oc1=O (stereo not shown) [Compound 4] yields Th-T fluorescence, mean of three wells of 2.79
